ASSAY OVERVIEW: PhoP-dependent GFP reporter repression – Salmonella Typhimurium, primary screen (AID 1863);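 note: 0% = low Mg2+ inducing control and 100% = high Mg2+ repressing control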
CONDITION LABEL: S. Typhimurium PhoP-regulated promoter GFP reporter, 4 h; at 50 µM; stronger effect = higher value
The campaign covered roughly 300,000 compounds. About 480 (0.16%) were called active. These entries were drawn from the full list. Potency and affinity values are given separately.
READOUT: inhibition

Quick note, inhibition for Cc1ccc(C(=O)c2no[n+]([O-])c2C(=O)c2ccc(C)cc2)cc1 landed at -26.5% (inactive)

----------
ASSAY OVERVIEW: PhoP-dependent GFP reporter repression – Salmonella Typhimurium, primary screen (AID 1863);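 note: 0% = low Mg2+ inducing control and 100% = high Mg2+ repressing control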
CONDITION LABEL: S. Typhimurium PhoP-regulated promoter GFP reporter, 4 h; at 50 µM; stronger effect = higher value
Screen size: about 300,000 compounds; about 480 (0.16%) were called active. These entries were drawn from the full list. Potency and affinity values are given separately.
READOUT: inhibition (%)
# value in %; strip the unit string

MOLECULE	inhibition, %
CC(C)C(=O)NC(c1cccs1)c1cc([N+](=O)[O-])c2cccnc2c1O (stereo not drawn)	2.63
COc1cc(/C=N/N=C(N)N)ccc1OCc1ccc(Cl)cc1	2.42
COc1cccc(C(NC(C)=O)c2ccc3cccnc3c2O)c1 (stereo not drawn)	9.73
CC(=O)NC(c1ccccc1)c1cc([N+](=O)[O-])c2cccnc2c1O (stereo not drawn)	4.87
O=C(O)c1cn(C2CCCCC2)c2ccccc2c1=O	-3.48
CC(C)C(=O)NC(c1ccccc1)c1cc([N+](=O)[O-])c2cccnc2c1O (stereo not drawn)	-2.27
Cc1ccc(CCNC(=O)C2CCCN(S(=O)(=O)c3c(C)nn(C)c3C)C2)cc1 (stereo not drawn)	-2.59
Cc1c(C(=O)N(Cc2cccc(Br)c2)C2CCS(=O)(=O)C2)oc2ccc(F)cc12 (stereo not drawn)	3.11

Quick note, inhibition for COc1cc(-c2nc(N)n[nH]2)cc(OC)c1OC landed at -10.2

Quick note, inhibition for CCCCCCn1ccc(=N)cc1 landed at -2.46

Quick note, inhibition for NC(N)=N/N=C/c1ccc(OCc2ccccc2)c(OCc2ccccc2)c1 landed at 10.4

Quick note, inhibition for Cc1ccccc1OCC(=O)NC(=S)Nc1ccccc1N1CCN(S(C)(=O)=O)CC1 landed at -1.77

Quick note, inhibition for CCOC(=O)c1cn(C2CC2)c2c(F)c(F)c(F)cc2c1=O landed at -6.9

Quick note, inhibition for COc1ccc(CC(=S)NCCc2ccccc2)cc1 landed at -4.36

Quick note, inhibition for COc1cc(Nc2ncnc(N)n2)cc(OC)c1OC landed at -3.05

Quick note, inhibition for Cc1cc(=O)[nH]c(-n2nc(C)cc2C)n1 landed at -11.6
